Each entry below lists one item and its recorded MIC value.
Test system: A. baumannii A329
protocol: MIC without and with sub-inhibitory polymyxin B (Example 4)
Format: cell-based, Acinetobacter baumannii
stated conditions: Acinetobacter baumannii, A329, A. baumannii A329; +0.06 μg/ml PB; 2nd experiment; read-out: MIC
property label: MIC (µg/mL)

{"columns": ["smiles input", "value reported"],
 "data": [
  ["Cc1c(-c2ccc(N)cc2)c(F)cn2c(=O)c(C(=O)O)cc(C3CC3)c12", 2],
  ["Cc1c(-c2ccc(CN)cc2)c(F)cn2c(=O)c(C(=O)O)cc(C3CC3)c12", 8],
  ["Cc1c(-c2ccc(N)c(F)c2)ccn2c(=O)c(C(=O)O)cc(C3CC3)c12", 2],
  ["Cc1c(-c2ccc(N)cc2)ccn2c(=O)c(C(=O)O)cc(C3CC3)c12", 2],
  ["Cc1c(-c2ccc(CN)c(F)c2)ccn2c(=O)c(C(=O)O)cc(C3CC3)c12", 8]
]}

====

protocol: Cytotoxicity (Example 7)
Assay type: cell-based
stated conditions: human, HEPG2 V1 cells
Protocol: The 4-oxoquinolizine compounds of the invention preferably have a low cytotoxicity against human cells. […]. Cytotoxicity was determined for the instant 4-oxoquinolizine compounds which show low cytotoxicity. (see Table 17 following). […]
The reader will find reported IC50 values listed item by item below.

{"columns": ["compound", "IC50"],
 "data": [
  ["Cc1c(-c2ccc(CN)c(F)c2)ccn2c(=O)c(C(=O)O)cc(C3CC3)c12 [Compound 4]", "60 µM"],
  ["Cc1c(-c2cc(Cl)c(N)c(Cl)c2)ccn2c(=O)c(C(=O)O)cc(C3CC3)c12 [Compound 3]", "50 µM"],
  ["Cc1c(-c2ccc(N)cc2)ccn2c(=O)c(C(=O)O)cc(C3CC3)c12 [Compound 8]", "90 µM"],
  ["Cc1c(-c2ccc(N)c(F)c2)ccn2c(=O)c(C(=O)O)cc(C3CC3)c12 [Compound 1]", "500 µM"],
  ["Cc1c(-c2ccc(N)cc2)c(F)cn2c(=O)c(C(=O)O)cc(C3CC3)c12 [Compound 7]", "150 µM"],
  ["Cc1c(-c2cc(F)c(N)cc2F)ccn2c(=O)c(C(=O)O)cc(C3CC3)c12 [Compound 2]", "250 µM"]
]}

====

We begin with a simple list: items and their reported MIC.
Tested on: A. baumannii ATCC 19606
protocol: MIC without and with sub-inhibitory polymyxin B (Example 4)
Type: cell-based, Acinetobacter baumannii
stated conditions: Acinetobacter baumannii, ATCC19606, read-out: MIC +0.06 μg/ml PB, A. baumannii ATCC 19606; +0.06 μg/ml polymyxin B; 1st experiment

{"columns": ["compound", "measured target", "inequality symbol", "MIC / µg/mL"],
 "data": [
  ["Cc1c(-c2ccc(CN)c(F)c2)ccn2c(=O)c(C(=O)O)cc(C3CC3)c12", "A. baumannii ATCC 19606", "=", 0.125],
  ["Cc1c(-c2ccc(N)cc2)ccn2c(=O)c(C(=O)O)cc(C3CC3)c12", "A. baumannii ATCC 19606", "≤", 0.03],
  ["Cc1c(-c2ccc(N)cc2)c(F)cn2c(=O)c(C(=O)O)cc(C3CC3)c12", "A. baumannii ATCC 19606", "≤", 0.03],
  ["Cc1c(-c2cc(Cl)c(N)c(Cl)c2)ccn2c(=O)c(C(=O)O)cc(C3CC3)c12", "A. baumannii ATCC 19606", "≤", 0.03],
  ["Cc1c(-c2ccc(N)c(F)c2)ccn2c(=O)c(C(=O)O)cc(C3CC3)c12", "A. baumannii ATCC 19606", "≤", 0.03],
  ["Cc1c(-c2ccc(N)c(F)c2)c(F)cn2c(=O)c(C(=O)O)cc(C3CC3)c12", "A. baumannii ATCC 19606", "≤", 0.03],
  ["Cc1c(-c2ccc(CN)cc2)c(F)cn2c(=O)c(C(=O)O)cc(C3CC3)c12", "A. baumannii ATCC 19606", "=", 0.06],
  ["NCC[C@H](O)C(=O)N[C@@H]1C[C@H](N)[C@@H](O[C@H]2O[C@H](CN)[C@@H](O)[C@H](O)[C@H]2O)[C@H](O)[C@H]1O[C@H]1O[C@H](CO)[C@@H](O)[C@H](N)[C@H]1O [Amikacin, reference compound]", "A. baumannii ATCC 19606", "=", 8],
  ["Cc1c(-c2ccc(CN)cc2)ccn2c(=O)c(C(=O)O)cc(C3CC3)c12", "A. baumannii ATCC 19606", "=", 0.06]
]}

Cited source: patent US20190105367A1
